Tested on: CRL-7250
Assay: Cytotoxic Profiling of Annotated Libraries Using Quantitative High-Throughput Screening (AID 1296008); further: nearly all actives have a fitted effect of over 60% in size
Settings: Five cell lines viability, CellTiter-Glo ATP luminescence, 48-72 h
Results filed as inconclusive are left out. Calls of active or inactive are those of the source. The call rests on the fitted dose curve; in most records, active means well fitted inhibition curve with a large enough effect; inconclusive means small, poorly fitted or top-dose-only effect; inactive means flat fitted curve, though single readings scatter.
Allowed answers: class 1 (active), class 0 (inactive)

Reference set, count: 4
CC(C)(C)NCC(O)COc1ccc(NC(=O)NC2CCCCC2)cc1 (stereo unspecified): class 0
C[C@]12CC[C@@H]3c4ccc(O)cc4CC[C@H]3[C@@H]1CCC2=O: class 0
CN1CCC[C@@H]1Cc1c[nH]c2ccc(CCS(=O)(=O)c3ccccc3)cc12: class 0
CC1(C)Oc2ccc(C#N)cc2[C@@H](N2CCCC2=O)[C@@H]1O: class 0

query: Recorded call for "CCCCOc1cc(C(=O)OCCN(CC)CC)ccc1N" ?
result: class 0

query: Please answer likewise for "Nc1ncnc2c1ncn2[C@@H]1O[C@H](CO)[C@@H](O)[C@H]1O"
result: class 0

query: Please answer likewise for "CC(=O)Nc1ccc(/C=N/NC(N)=S)cc1"
result: class 0

query: Please answer likewise for "O=C1O[C@H](CO)[C@@H](O)[C@H](O)[C@H]1O"
result: class 0

query: Please answer likewise for "C[C@]12CC[C@@H]3c4ccc(O)cc4CC[C@H]3[C@@H]1CC[C@@H]2OC(=O)CCC1CCCC1"
result: class 0

query: Please answer likewise for "CNC(=O)Oc1ccc2c(c1)[C@]1(C)CCN(C)[C@@H]1N2C"
result: class 0

query: Please answer likewise for "NC(N)=NCCC[C@H](N)C(=O)O"
result: class 0

query: Please answer likewise for "O=c1cc[nH]c(=O)[nH]1"
result: class 0

query: Please answer likewise for CN1CCOC(c2ccccc2)c2ccccc2C1 (stereo unspecified)
result: class 0

query: Please answer likewise for "Nc1cc(=O)[nH]c(N)n1"
result: class 0

query: Please answer likewise for "CC[N+](CC)(CC)CCOc1ccc(/C=C/c2ccccc2)cc1"
result: class 1

query: Please answer likewise for CN1CCCCC1CCN1c2ccccc2Sc2ccc(S(C)=O)cc21 (stereo unspecified)
result: class 0

query: Please answer likewise for CC(=O)NC(Cc1ccccc1)C(=O)O (stereo unspecified)
result: class 0

query: Please answer likewise for "O=C1N=C(O)CN1/N=C/c1ccc(-c2ccc([N+](=O)[O-])cc2)o1"
result: class 0

query: Please answer likewise for "Nc1ccc(S(=O)(=O)Nc2ccccc2)cc1"
result: class 0

query: Please answer likewise for "C[C@H]1O[C@H](O[C@H]2[C@H](O)[C@@H](O)[C@@H](O[C@H]3[C@H](O)[C@@H](O)[C@H](O)O[C@@H]3CO)O[C@@H]2CO)[C@H](O)[C@@H](O)[C@@H]1N[C@H]1C=C(CO)[C@@H](O)[C@H](O)[C@H]1O"
result: class 0

---

Target: Ubiquitin carboxyl-terminal hydrolase 1 (Homo sapiens)
Assay: Inhibitors of USP1/UAF1: Pilot qHTS (AID 504865); further: nearly all actives have a fitted effect of over 35% in size
Conditions: purified USP1/UAF1, Ub-rhodamine cleavage fluorescence; series mostly up to 114 µM
Inconclusive results are not listed. Activity calls are given as the source filed them. Calls come from the whole dose curve; as a rule, active = well fitted inhibition curve with a large enough effect; inconclusive = small, poorly fitted or top-dose-only effect; inactive = flat fitted curve, though single readings scatter.
Allowed answers: active, inactive

Reference set, count: 5
CC(COc1ccccc1)NC(C)C(O)c1ccc(O)cc1 (centres undefined): inactive
CCC(=O)c1ccc(O)cc1: inactive
O=Cc1ccccc1C=O: active
CCOc1ccc2ccccc2c1C(=O)N[C@@H]1C(=O)N2[C@@H]1SC(C)(C)[C@@H]2C(=O)O: inactive
Cc1cccc(C)c1NC(=O)CN(CC(=O)O)CC(=O)O: inactive

query: Recorded call for "OC[C@H]1O[C@@H](O[C@@H]2[C@@H](CO)O[C@](O)(CO)[C@H]2O)[C@H](O)[C@@H](O)[C@H]1O" ?
result: inactive

query: Please answer likewise for "N[C@@H](CSCCCO)C(=O)O"
result: inactive

query: Please answer likewise for "O=S(=O)(O)NC1CCCCC1"
result: inactive

query: Please answer likewise for "Cn1cc[nH]c1=S"
result: inactive

query: Please answer likewise for NC(CSCC(=O)O)C(=O)O (centres undefined)
result: inactive

---

Test system: CP325
Experiment: qHTS profiling for inhibitors of Plasmodium falciparum proliferation (AID 504749); further: nearly all actives have a fitted effect of over 60% in size; further: potency means the concentration at half of the fitted maximal effect
Details: P. falciparum in erythrocytes, SYBR Green DNA, 72 h; series mostly up to 28.7 µM
Inconclusive results are not listed. Activity calls are given as the source filed them. The call rests on the fitted dose curve; in most records, active means well fitted inhibition curve with a large enough effect; inconclusive means small, poorly fitted or top-dose-only effect; inactive means flat fitted curve, though single readings scatter.
Property name: Potency

Would you please look over these solved cases?
CC(C)(C)NCC(O)COc1ccc(NC(=O)NC2CCCCC2)cc1 (configuration not stated): inactive
Nc1ccc(S(=O)(=O)NC(=O)c2ccccc2)cc1: inactive
CC1(C)OC(=O)NC1=O: inactive
CCOC(CN1CCN(CC(C)C(=O)c2ccccc2)CC1)c1ccccc1 (configuration not stated): inactive
CC(C)(C)C(=O)NCCCC(=O)O: inactive
NC(=O)NNc1ccccc1: inactive

query: For the molecule "C[C@H]1O[C@@H](n2cc(F)c(=O)[nH]c2=O)[C@H](O)[C@@H]1O" , what Potency is on record?
result: inactive

query: Please answer likewise for "O=C1NS(=O)(=O)c2ccccc21"
result: inactive

query: Please answer likewise for "CCCCN1CCCC[C@H]1C(=O)Nc1c(C)cccc1C"
result: inactive

query: Please answer likewise for "COc1ccccc1O"
result: inactive

query: Please answer likewise for "CCCCOc1cc(C(=O)OCCN(CC)CC)ccc1N"
result: inactive

query: Please answer likewise for "CCCCc1ncc(/C=C(\Cc2cccs2)C(=O)O)n1Cc1ccc(C(=O)O)cc1"
result: inactive

query: Please answer likewise for "O=C(O)c1ccccc1O"
result: inactive

query: Please answer likewise for CC(O)CN(CCN(CC(C)O)CC(C)O)CC(C)O (configuration not stated)
result: inactive

query: Please answer likewise for CCCCN(CCCC)CC(O)c1cc(Cl)cc2c1-c1ccc(Cl)cc1/C2=C/c1ccc(Cl)cc1 (configuration not stated)
result: 42.6 nM (active)

---

// values below are reported activity change, negative = inhibition
Assay: qHTS Assay for Lipid Storage Modulators (AID 1519); further: on the % scale 0 is the no-effect control and ±100 the full control effect
Conditions: Drosophila S3 cells, BODIPY lipid droplet/cell ratio, laser cytometry; at 57.5 µM (top of the series); cells loaded with oleic acid
Results filed as inconclusive are left out.
Lab book: enter the figure in %, no units written.

Would you please look over these solved cases?
CC1=C(/C=C/C(C)=C/C=C/C(C)=C/C(=O)O)C(C)(C)CCC1: 0.149
c1ccc(CN(CC2=NCCN2)c2ccccc2)cc1: -1.31
CN(C)CCOC(C)(c1ccccc1)c1ccccn1 (stereo unspecified): 3.29
Cc1cc(CC(=O)O)n(C)c1C(=O)c1ccc(Cl)cc1: 7.69
OCc1cc(C(O)CNCCCCCCOCCCCc2ccccc2)ccc1O (stereo unspecified): -1.85

Next molecule, please.
query: For the molecule "OC[C@H]1O[C@@H](O[C@@H]2[C@@H](CO)O[C@](O)(CO)[C@H]2O)[C@H](O)[C@@H](O)[C@H]1O" , what activity change, negative = inhibition is on record?
result: -5.86

---

Assay: qHTS of pediatric cancer cell lines to identify multiple opportunities for drug repurposing: Primary screen for BT-37 cells (AID 1347094)
Conditions: BT-37 viability, CellTiter-Glo luminescence, 48 h; series mostly up to 57.3 µM
Results filed as inconclusive are left out. Calls of active or inactive are those of the source. The call rests on the fitted dose curve; in most records, active means well fitted cell-killing curve with a large enough effect; inconclusive means small, poorly fitted or top-dose-only effect; inactive means flat fitted curve, though single readings scatter.
Allowed answers: active, inactive

query: Recorded call for "O=S(=O)(O)c1cc(I)c(O)c2ncccc12" ?
result: inactive

query: Please answer likewise for CCN(CC)CCCC(C)Nc1c2ccc(Cl)cc2nc2ccc(OC)cc12 (stereo not drawn)
result: active

query: Please answer likewise for "Cc1c(Cl)cccc1Nc1ccccc1C(=O)O"
result: inactive

query: Please answer likewise for "O=S(=O)(O)NC1CCCCC1"
result: inactive

query: Please answer likewise for "CN(N=O)C(=O)N[C@@H]1[C@@H](O)[C@H](O)[C@@H](CO)O[C@@H]1O"
result: inactive

---

Test system: CP260
Assay: qHTS profiling for inhibitors of Plasmodium falciparum proliferation (AID 504749); further: nearly all actives have a fitted effect of over 60% in size
Conditions: P. falciparum in erythrocytes, SYBR Green DNA, 72 h; series mostly up to 28.7 µM
Records with an inconclusive call do not appear. Active and inactive are the calls of the source. Calls come from the whole dose curve; as a rule, active = well fitted inhibition curve with a large enough effect; inconclusive = small, poorly fitted or top-dose-only effect; inactive = flat fitted curve, though single readings scatter.
Allowed answers: active, inactive

Reference set, count: 5
O=C(CCCN1CCN(c2ccccn2)CC1)c1ccc(F)cc1: inactive
Cc1cc(N)c2ccccc2[n+]1CCCCCCCCCC[n+]1c(C)cc(N)c2ccccc21: active
O=C(O)CC(O)C(=O)O (stereo not given): inactive
CSc1ccc2c(c1)N(CCC1CCCCN1C)c1ccccc1S2 (stereo not given): active
C[C@]12C[C@H](O)[C@H]3[C@@H](CCC4=CC(=O)CC[C@@]43C)[C@@H]1CC[C@@H]2C(=O)CO: inactive

query: Recorded call for "NC1CCN(c2cccc(Cl)n2)CC1" ?
result: inactive

query: Please answer likewise for "CCN(CC)CCNC(=O)c1cc(Cl)c(N)cc1OC"
result: inactive

query: Please answer likewise for Oc1ccc(C(O)CNCCCCCCNCC(O)c2ccc(O)c(O)c2)cc1O (stereo not given)
result: active

All values here come from PubChem BioAssay (NCATS).
